# Test system: HIV strain IIIB (wild type)
# protocol_text: Cellular anti-HIV assay in MT4 LTR-EGFP cells, strain IIIB (wild type); selectivity index versus cytotoxicity in mock-infected MT4 CMV-EGFP cells
# Assay type: cell-based, HIV-1
# test_context: Human immunodeficiency virus 1, 72 h; wild type HIV strain IIIB; MT4 LTR-EGFP cells; fluorescence, three days after infection; read-out: IIIB pEC50 (converted)
Labelling field: enter 1 if recorded EC50 is less than 8 nM. Enter 0 if it equals or exceeds that cut-off.

> print(dat)
                                    compound              subject.of.test  group
 1  Cc1cc(/C=C/C#N)cc(C)c1Nc1nc(Nc2ccc(C#N)cc2)ncc1C(=O)NCc1ccc(Br)cc1  HIV strain IIIB (wild type)      0
 2  Cc1cc(/C=C/C#N)cc(C)c1Oc1nc(Nc2ccc(C#N)cc2)ncc1C(=O)NCC#N  HIV strain IIIB (wild type)      1
 3  Cc1cc(/C=C/C#N)cc(C)c1Nc1nc(Nc2ccc(C#N)cc2)ncc1C(=O)NCC#N  HIV strain IIIB (wild type)      0
 4  CONC(=O)c1cnc(Nc2ccc(C#N)cc2)nc1Oc1c(C)cc(/C=C/C#N)cc1C  HIV strain IIIB (wild type)      1
 5  Cc1cc(/C=C/C#N)cc(C)c1Nc1nc(Nc2ccc(C#N)cc2)ncc1C(=O)NC1CC1  HIV strain IIIB (wild type)      1
 6  Cc1cc(/C=C/C#N)cc(C)c1Nc1nc(Nc2ccc(C#N)cc2)ncc1C(=O)NCc1ccco1  HIV strain IIIB (wild type)      1
 7  Cc1cc(/C=C/C#N)cc(C)c1Nc1nc(Nc2ccc(C#N)cc2)ncc1C(=O)NCCc1cccc(F)c1  HIV strain IIIB (wild type)      0
 8  CCOC(=O)CCNC(=O)c1cnc(Nc2ccc(C#N)cc2)nc1Nc1c(C)cc(/C=C/C#N)cc1C  HIV strain IIIB (wild type)      1
 9  CONC(=O)c1cnc(Nc2ccc(C#N)cc2)nc1Nc1c(C)cc(/C=C/C#N)cc1C  HIV strain IIIB (wild type)      1
10  Cc1cc(/C=C/C#N)cc(C)c1Nc1nc(Nc2ccc(C#N)cc2)ncc1C(=O)N(C)CCO  HIV strain IIIB (wild type)      1
11  Cc1cc(/C=C/C#N)cc(C)c1Nc1nc(Nc2ccc(C#N)cc2)ncc1C(=O)NCc1cccc(Cl)c1  HIV strain IIIB (wild type)      0
12  CC(=O)NCCNC(=O)c1cnc(Nc2ccc(C#N)cc2)nc1Nc1c(C)cc(/C=C/C#N)cc1C  HIV strain IIIB (wild type)      0
13  CCOC(=O)CCCNC(=O)c1cnc(Nc2ccc(C#N)cc2)nc1Nc1c(C)cc(/C=C/C#N)cc1C  HIV strain IIIB (wild type)      1
14  CCOC(=O)CN(C)C(=O)c1cnc(Nc2ccc(C#N)cc2)nc1Nc1c(C)cc(/C=C/C#N)cc1C  HIV strain IIIB (wild type)      1
15  Cc1cc(/C=C/C#N)cc(C)c1Nc1nc(Nc2ccc(C#N)cc2)ncc1C(=O)N1CCN(C)CC1  HIV strain IIIB (wild type)      1
16  Cc1cc(/C=C/C#N)cc(C)c1Nc1nc(Nc2ccc(C#N)cc2)ncc1C(=O)NCc1ccncc1  HIV strain IIIB (wild type)      1
17  Cc1cc(/C=C/C#N)cc(C)c1Nc1nc(Nc2ccc(C#N)cc2)ncc1C(=O)NCCc1cccs1  HIV strain IIIB (wild type)      0
18  Cc1cc(/C=C/C#N)cc(C)c1Nc1nc(Nc2ccc(C#N)cc2)ncc1C(=O)NCCN(C)C  HIV strain IIIB (wild type)      1
19  Cc1cc(/C=C/C#N)cc(C)c1Nc1nc(Nc2ccc(C#N)cc2)ncc1C(=O)NCCc1ccccc1  HIV strain IIIB (wild type)      0
20  Cc1cc(/C=C/C#N)cc(C)c1Nc1nc(Nc2ccc(C#N)cc2)ncc1C(=O)NCCO  HIV strain IIIB (wild type)      1
21  COc1ccccc1CNC(=O)c1cnc(Nc2ccc(C#N)cc2)nc1Nc1c(C)cc(/C=C/C#N)cc1C  HIV strain IIIB (wild type)      1
22  Cc1cc(/C=C/C#N)cc(C)c1Nc1nc(Nc2ccc(C#N)cc2)ncc1C(=O)NCC1CC1  HIV strain IIIB (wild type)      1
23  Cc1cc(/C=C/C#N)cc(C)c1Nc1nc(Nc2ccc(C#N)cc2)ncc1C(=O)NCC1COC(C)(C)O1 (stereo not shown)  HIV strain IIIB (wild type)      1
24  Cc1cc(/C=C/C#N)cc(C)c1Oc1nc(Nc2ccc(C#N)cc2)ncc1C(=O)NCc1ccncc1  HIV strain IIIB (wild type)      1
25  COCCNC(=O)c1cnc(Nc2ccc(C#N)cc2)nc1Oc1c(C)cc(/C=C/C#N)cc1C  HIV strain IIIB (wild type)      1
26  Cc1cc(/C=C/C#N)cc(C)c1Oc1nc(Nc2ccc(C#N)cc2)ncc1C(=O)NCC1CCCO1 (stereo not shown)  HIV strain IIIB (wild type)      1
27  Cc1cc(/C=C/C#N)cc(C)c1Nc1nc(Nc2ccc(C#N)cc2)ncc1C(=O)NCCCN(C)C  HIV strain IIIB (wild type)      0

// provenance: patent US8933089B2
